Target: UniProtKB P11597
Sequence (P11597 whole entry): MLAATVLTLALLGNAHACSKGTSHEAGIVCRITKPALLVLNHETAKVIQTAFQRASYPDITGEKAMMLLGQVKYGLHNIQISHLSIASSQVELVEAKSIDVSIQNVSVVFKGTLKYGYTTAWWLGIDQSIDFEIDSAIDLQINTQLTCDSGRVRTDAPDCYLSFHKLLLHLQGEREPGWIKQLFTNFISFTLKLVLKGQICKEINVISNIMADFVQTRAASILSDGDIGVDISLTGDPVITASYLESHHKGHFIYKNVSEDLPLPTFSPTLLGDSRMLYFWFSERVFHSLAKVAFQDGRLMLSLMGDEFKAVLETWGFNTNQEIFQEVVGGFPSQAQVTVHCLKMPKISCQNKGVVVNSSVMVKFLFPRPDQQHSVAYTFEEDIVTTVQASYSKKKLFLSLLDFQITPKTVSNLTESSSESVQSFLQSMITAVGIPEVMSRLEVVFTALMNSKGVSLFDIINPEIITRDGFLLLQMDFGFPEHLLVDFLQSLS
Test: Inhibition of human recombinant CETP assessed as reduction in [3H]cholesteryl ester transfer from [3H]CE-HDL to biotinylated LDL by scintillation proximity assay
Measurement Kind: IC50 (nM)

| Input Smiles | Unit Abbreviation | Test Result |
| --- | --- | --- |
| CC(=O)O[C@H](CN[C@@](Cc1ccccc1)(c1cc(F)cc(C(F)(F)F)c1)c1ccc(Cl)cn1)C(F)(F)F | nM | 826 |
| CC(C)Oc1cc([C@@](Cc2ccccc2)(NC[C@@H](O)CC(F)(F)F)c2cc(F)cc(OC(F)(F)C(F)F)c2)ccc1F | nM | 2.5 |
| OC[C@@H](O)CN[C@@](Cc1ccccc1)(c1cc(F)cc(C(F)(F)F)c1)c1ccc(Cl)cn1 | nM | 3100 |
| CO[C@H](CN[C@@](Cc1ccccc1)(c1cc(F)cc(C(F)(F)F)c1)c1ccc(Cl)cn1)C(F)(F)F | nM | 253 |

P. CC(C)Oc1cc([C@@](Cc2ccccc2)(NC[C@H](O)C(F)(F)F)c2cc(F)cc(OC(F)(F)C(F)F)c2)ccc1F
Q. C[C@H](O)CN[C@@](Cc1ccccc1)(c1cc(F)cc(C(F)(F)F)c1)c1ccc(Cl)cn1
Req: // which entry has the larger IC50 value, P or Q ? Field: selected label. Fill in the label of the entry you choose.
Resp: Q
(Q: 334 nM, P: 2.9 nM)

Numbers sourced from ChEMBL document CHEMBL3813624.
